Molecular target: human TLR9 (Homo sapiens)
Sequence (Q9NR96 26-1032): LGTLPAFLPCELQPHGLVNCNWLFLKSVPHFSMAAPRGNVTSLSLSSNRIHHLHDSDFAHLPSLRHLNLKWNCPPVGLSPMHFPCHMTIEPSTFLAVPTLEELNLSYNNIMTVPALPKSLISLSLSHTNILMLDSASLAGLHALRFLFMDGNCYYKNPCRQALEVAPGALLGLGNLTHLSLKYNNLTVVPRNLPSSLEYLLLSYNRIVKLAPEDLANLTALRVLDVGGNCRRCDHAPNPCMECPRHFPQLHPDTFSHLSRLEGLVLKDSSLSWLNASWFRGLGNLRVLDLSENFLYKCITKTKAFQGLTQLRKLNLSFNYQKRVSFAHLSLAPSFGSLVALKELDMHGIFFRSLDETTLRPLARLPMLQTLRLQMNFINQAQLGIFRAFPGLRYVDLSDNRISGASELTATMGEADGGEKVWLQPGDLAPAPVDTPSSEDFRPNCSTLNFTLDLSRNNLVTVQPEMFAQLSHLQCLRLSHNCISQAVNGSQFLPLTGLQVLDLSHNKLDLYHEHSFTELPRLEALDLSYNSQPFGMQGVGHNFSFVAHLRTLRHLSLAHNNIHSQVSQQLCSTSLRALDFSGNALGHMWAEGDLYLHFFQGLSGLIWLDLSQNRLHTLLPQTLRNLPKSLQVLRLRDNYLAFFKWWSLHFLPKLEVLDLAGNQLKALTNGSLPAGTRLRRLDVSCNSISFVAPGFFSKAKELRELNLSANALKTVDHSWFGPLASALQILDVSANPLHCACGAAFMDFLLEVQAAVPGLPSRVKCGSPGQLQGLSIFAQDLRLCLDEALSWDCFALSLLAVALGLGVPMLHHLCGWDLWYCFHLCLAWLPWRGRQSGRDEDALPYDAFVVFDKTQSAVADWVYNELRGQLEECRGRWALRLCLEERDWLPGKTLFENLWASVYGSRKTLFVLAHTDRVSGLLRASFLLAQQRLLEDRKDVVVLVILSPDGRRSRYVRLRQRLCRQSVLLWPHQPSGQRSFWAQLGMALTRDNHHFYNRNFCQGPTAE
Experiment: TLR9 inhibition reporter assay (HEK-Blue SEAP reporter, ODN2006 stimulation)
Conditions: HEK-Blue cells overexpressing human TLR9, SEAP reporter, ODN2006 5 nM, 22 hour incubation
Provide the reported pIC50 of each item.
Answers are plain numbers, as −log10 of the molar value.

smiles_notation | measured_property | value
CCn1nc(-c2[nH]c3ccc(C4CCNCC4)cc3c2C(C)C)cc(C)c1=O | pIC50 | 5.18

Below are some compounds; for each one, tell me its pIC50.
1. Cc1cc(-c2[nH]c3ccc(C4CCN(C(C)C)CC4)cc3c2C(C)C)cn(C)c1=O
2. Cc1c(-c2[nH]c3ccc(C4CCN(C5COC5)CC4)cc3c2C(C)C)cn(C)c(=O)c1Cl
3. Cc1cc(-c2[nH]c3ccc(C4CCN(CC(C)(C)O)CC4)cc3c2C(C)C)c(C)n(C)c1=O

[5.26, 4.52, 5.51]
